So I've got a bunch of compounds here, and I need their pKi values.
Target: Carbonic anhydrase (Candida glabrata CBS 138)
Sequence (Q6FTL6 whole entry): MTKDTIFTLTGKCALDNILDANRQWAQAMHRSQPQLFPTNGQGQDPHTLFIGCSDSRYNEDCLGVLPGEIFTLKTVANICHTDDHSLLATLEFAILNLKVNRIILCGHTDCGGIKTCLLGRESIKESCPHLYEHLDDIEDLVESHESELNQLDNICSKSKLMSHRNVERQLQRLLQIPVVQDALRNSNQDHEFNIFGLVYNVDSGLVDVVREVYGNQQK
Assay: Inhibition of recombinant Candida glabrata beta carbonic anhydrase NCE103 expressed in Escherichia coli preincubated for 15 mins by stopped-flow CO2 hydration assay
Numbers only, as −log10 of the molar value.

CN1C(=O)/C(=N\c2ccc(S(N)(=O)=O)cc2)c2cc(Cl)ccc21 :: 7.44
NS(=O)(=O)c1ccccc1/N=C1\C(=O)Nc2ccc(Cl)cc21 :: 7.23

Under Carbonic anhydrase (Candida glabrata CBS 138): pKi value of "CN1C(=O)/C(=N\c2ccc(S(N)(=O)=O)cc2)c2cc(Br)ccc21" ? 7.43
